- assay.text: Displacement of [3H]prazosine from alpha-1 receptor in porcine cortical membranes
- Type: cell membranes, Sus scrofa
pKi: −log10 of the molar value.
pKi listing for selected compounds.
observed.property: pKi

compound=COc1cc(CCNC[C@@H](O)c2ccc(O)c3[nH]c(=O)ccc23)ccc1OCCCc1ccccc1 observed=5.74
compound=COc1cc(CCNC[C@H](O)c2ccc(O)c(O)c2)ccc1OCCCc1ccccc1 observed=7.80
compound=COc1ccccc1OCCNC[C@@H](O)c1ccc(O)c(O)c1 observed=7.72
compound=COc1cc(CCNC[C@H](O)c2ccc(O)c3c2OCC(=O)N3)ccc1OCCCc1ccccc1 observed=5.72
compound="CC(C)NCC(O)c1ccc(O)c(O)c1 (stereo not given)" observed=4.11
